The reported measurements were obtained from patent US20210246200A1.

biological target: T1, Proleukin® (aldesleukin) (human, UniProt P60568 21-153, limits assumed); test: ELISA, coated Proleukin, HEK293F supernatant 1:2
T1 construct: Variant of human wt IL-2 with C145S (C125S on mature IL-2); also called IL-2 (Proleukin®); human IL-2 (Proleukin)
T1 sequence (P60568 other isoform, or with tags, fused parts or gaps limits assumed): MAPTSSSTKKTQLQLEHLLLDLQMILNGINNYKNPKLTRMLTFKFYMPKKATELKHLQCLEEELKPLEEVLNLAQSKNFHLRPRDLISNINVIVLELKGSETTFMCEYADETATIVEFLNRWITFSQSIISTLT
endpoint-name: ELISA value (Normal ELISA) (luminescence signal)
Please reply with the bare figure in luminescence signal and do not write the unit itself.

Completed entries (count: 2):
binder	ELISA value (Normal ELISA), luminescence signal
Antibody No: 7 (antibody, human IgG1, kappa, N297A, V domains shown, VK M33L; HEK293F supernatant) VH: EVQLVQSGAEVKKPGESLKISCKGSGYAFTNYLIEWVRQMPGKGLEWMGVINPGSGGTNYNEKFKGQVTISADKSISTAYLQWSSLKASDTAMYYCARWRGEGYYAYYDVWGQGTTVTVSS VL: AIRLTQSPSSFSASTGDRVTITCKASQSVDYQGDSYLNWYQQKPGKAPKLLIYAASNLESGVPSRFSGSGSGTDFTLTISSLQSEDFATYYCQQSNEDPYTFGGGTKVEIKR	7640
Antibody No: 13 (antibody, human IgG1, kappa, N297A, V domains shown, VH N58Y; VK A50S; also called 108925) VH: EVQLVQSGAEVKKPGESLKISCKGSGYAFTNYLIEWVRQMPGKGLEWMGVINPGSGGTYYNEKFKGQVTISADKSISTAYLQWSSLKASDTAMYYCARWRGEGYYAYFDVWGQGTTVTVSS VL: AIRLTQSPSSFSASTGDRVTITCKASQSVDYQGDSYMNWYQQKPGKAPKLLIYSASNLESGVPSRFSGSGSGTDFTLTISSLQSEDFATYYCQQSNEDPYTFGGGTKVEIKR	14500

Challenge: Name the reported ELISA value (Normal ELISA) value associated with the binder Antibody No: 11 (antibody, human IgG1, kappa, N297A, V domains shown, VH N58Y; VK WT; HEK293F supernatant) VH: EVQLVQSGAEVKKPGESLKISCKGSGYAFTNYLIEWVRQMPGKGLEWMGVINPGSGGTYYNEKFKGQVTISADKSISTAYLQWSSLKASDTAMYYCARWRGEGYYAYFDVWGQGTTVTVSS VL: AIRLTQSPSSFSASTGDRVTITCKASQSVDYQGDSYMNWYQQKPGKAPKLLIYAASNLESGVPSRFSGSGSGTDFTLTISSLQSEDFATYYCQQSNEDPYTFGGGTKVEIKR
Response given: 12400
